Experiment: Plasma clearance in Sprague-Dawley rat at 1 mg/kg, iv by LC/MS/MS analysis
Assay type: ADME, organism-based
Set-up: dose 1 mg/kg, route intravenous
readout_type: clearance (mL/min/kg)

smiles_representation	readout_number
CCN1C(=O)CCCc2c1ccc(Nc1ncc(Cl)c(N[C@H]3[C@@H](C(N)=O)[C@@H]4C=C[C@H]3C4)n1)c2OC	13

* * *

Experiment: Oral bioavailability in rat
Assay type: ADME, organism-based
Details: in vivo
# bioavailability per record follows
readout_type: bioavailability (%)

compound	readout_number
CNS(=O)(=O)c1ccccc1Nc1nc(Nc2ccc3c(c2)CCCC(=O)N3C)ncc1Cl	11
CN1C(=O)CCCc2cc(Nc3ncc(Cl)c(N[C@H]4[C@@H](C(N)=O)[C@@H]5C=C[C@H]4C5)n3)ccc21 (racemic)	13
CNC(=O)c1ccccc1Nc1nc(Nc2ccc3c(c2)CCCC(=O)N3C)ncc1Cl	9

* * *

Assay: Plasma protein binding in mouse
Assay type: ADME, cell-free
Details: read-out: PPB (converted)
readout_type: fraction unbound

smiles_representation	result
CCN1C(=O)CCCc2c1ccc(Nc1ncc(Cl)c(N[C@H]3[C@@H](C(N)=O)[C@@H]4C=C[C@H]3C4)n1)c2OC	0.08

* * *

Assay: Half life in beagle dog at 10 mg/kg, po
Type: ADME, organism-based, Canis lupus familiaris
Parameters: dose 10 mg/kg, route oral
Conditions: in vivo

smiles_representation	half-life
CCN1C(=O)CCCc2c1ccc(Nc1ncc(Cl)c(N[C@H]3[C@@H](C(N)=O)[C@@H]4C=C[C@H]3C4)n1)c2OC	1.6 h

* * *

Assay: Volume of distribution in SCID mouse at 1 mg/kg, iv
Type: ADME, organism-based
Set-up: dose 1 mg/kg, route intravenous
Conditions: in vivo
readout_type: Vd (L/kg)

smiles_representation	readout_type	readout_number
CCN1C(=O)CCCc2c1ccc(Nc1ncc(Cl)c(N[C@H]3[C@@H](C(N)=O)[C@@H]4C=C[C@H]3C4)n1)c2OC	Vd	0.9

* * *

Assay: Half life in SCID mouse at 1 mg/kg, iv
Type: ADME, organism-based
Design: dose 1 mg/kg, route intravenous
Conditions: in vivo

smiles_representation	half-life
CCN1C(=O)CCCc2c1ccc(Nc1ncc(Cl)c(N[C@H]3[C@@H](C(N)=O)[C@@H]4C=C[C@H]3C4)n1)c2OC	18 min

* * *

Assay: Volume of distribution in beagle dog at 1 mg/kg, iv
Format: ADME, organism-based, Canis lupus familiaris
Parameters: dose 1 mg/kg, route intravenous
Conditions: in vivo

smiles_representation	Vd, L/kg
CCN1C(=O)CCCc2c1ccc(Nc1ncc(Cl)c(N[C@H]3[C@@H](C(N)=O)[C@@H]4C=C[C@H]3C4)n1)c2OC	2.1

* * *

Test: AUC in beagle dog at 1 mg/kg, iv
Format: ADME, organism-based, Canis lupus familiaris
Set-up: dose 1 mg/kg, route intravenous
Settings: plasma

smiles_representation	AUC (ng·h/mL)
CCN1C(=O)CCCc2c1ccc(Nc1ncc(Cl)c(N[C@H]3[C@@H](C(N)=O)[C@@H]4C=C[C@H]3C4)n1)c2OC	773

* * *

Test: AUC in SCID mouse at 10 mg/kg, po
Format: ADME, organism-based
Parameters: dose 10 mg/kg, route oral
Settings: plasma

smiles_representation	AUC / ng·h/mL
CCN1C(=O)CCCc2c1ccc(Nc1ncc(Cl)c(N[C@H]3[C@@H](C(N)=O)[C@@H]4C=C[C@H]3C4)n1)c2OC	1410

* * *

Assay: Growth inhibition of ALK-positive human SUP-M2 cells by MTS assay
Format: functional, cell-based
pEC50: −log10 of the molar value.
readout_type: pEC50

smiles_representation	readout_number
CCN1C(=O)CCCc2c1ccc(Nc1ncc(Cl)c(N[C@H]3[C@@H](C(N)=O)[C@@H]4C=C[C@H]3C4)n1)c2OC	6.70

* * *

Test: Half life in Sprague-Dawley rat at 1 mg/kg, iv
Type: ADME, organism-based
Parameters: dose 1 mg/kg, route intravenous
Details: in vivo
readout_type: half-life (min)

smiles_representation	readout_type	units_of_measure	readout_number
CCN1C(=O)CCCc2c1ccc(Nc1ncc(Cl)c(N[C@H]3[C@@H](C(N)=O)[C@@H]4C=C[C@H]3C4)n1)c2OC	half-life	min	48

* * *

Experiment: Plasma concentration in SCID mouse xenografted with ALK-positive human SUP-M2 cells at 30 mg/kg, po bid for 12 days
Format: ADME, organism-based
Parameters: dose 30 mg/kg, route oral

smiles_representation	units_of_measure	concentration at 288 h
CCN1C(=O)CCCc2c1ccc(Nc1ncc(Cl)c(N[C@H]3[C@@H](C(N)=O)[C@@H]4C=C[C@H]3C4)n1)c2OC	ng/mL	1500

* * *

Molecular target: ALK tyrosine kinase receptor (Homo sapiens)
Sequence (Q9UM73 whole entry): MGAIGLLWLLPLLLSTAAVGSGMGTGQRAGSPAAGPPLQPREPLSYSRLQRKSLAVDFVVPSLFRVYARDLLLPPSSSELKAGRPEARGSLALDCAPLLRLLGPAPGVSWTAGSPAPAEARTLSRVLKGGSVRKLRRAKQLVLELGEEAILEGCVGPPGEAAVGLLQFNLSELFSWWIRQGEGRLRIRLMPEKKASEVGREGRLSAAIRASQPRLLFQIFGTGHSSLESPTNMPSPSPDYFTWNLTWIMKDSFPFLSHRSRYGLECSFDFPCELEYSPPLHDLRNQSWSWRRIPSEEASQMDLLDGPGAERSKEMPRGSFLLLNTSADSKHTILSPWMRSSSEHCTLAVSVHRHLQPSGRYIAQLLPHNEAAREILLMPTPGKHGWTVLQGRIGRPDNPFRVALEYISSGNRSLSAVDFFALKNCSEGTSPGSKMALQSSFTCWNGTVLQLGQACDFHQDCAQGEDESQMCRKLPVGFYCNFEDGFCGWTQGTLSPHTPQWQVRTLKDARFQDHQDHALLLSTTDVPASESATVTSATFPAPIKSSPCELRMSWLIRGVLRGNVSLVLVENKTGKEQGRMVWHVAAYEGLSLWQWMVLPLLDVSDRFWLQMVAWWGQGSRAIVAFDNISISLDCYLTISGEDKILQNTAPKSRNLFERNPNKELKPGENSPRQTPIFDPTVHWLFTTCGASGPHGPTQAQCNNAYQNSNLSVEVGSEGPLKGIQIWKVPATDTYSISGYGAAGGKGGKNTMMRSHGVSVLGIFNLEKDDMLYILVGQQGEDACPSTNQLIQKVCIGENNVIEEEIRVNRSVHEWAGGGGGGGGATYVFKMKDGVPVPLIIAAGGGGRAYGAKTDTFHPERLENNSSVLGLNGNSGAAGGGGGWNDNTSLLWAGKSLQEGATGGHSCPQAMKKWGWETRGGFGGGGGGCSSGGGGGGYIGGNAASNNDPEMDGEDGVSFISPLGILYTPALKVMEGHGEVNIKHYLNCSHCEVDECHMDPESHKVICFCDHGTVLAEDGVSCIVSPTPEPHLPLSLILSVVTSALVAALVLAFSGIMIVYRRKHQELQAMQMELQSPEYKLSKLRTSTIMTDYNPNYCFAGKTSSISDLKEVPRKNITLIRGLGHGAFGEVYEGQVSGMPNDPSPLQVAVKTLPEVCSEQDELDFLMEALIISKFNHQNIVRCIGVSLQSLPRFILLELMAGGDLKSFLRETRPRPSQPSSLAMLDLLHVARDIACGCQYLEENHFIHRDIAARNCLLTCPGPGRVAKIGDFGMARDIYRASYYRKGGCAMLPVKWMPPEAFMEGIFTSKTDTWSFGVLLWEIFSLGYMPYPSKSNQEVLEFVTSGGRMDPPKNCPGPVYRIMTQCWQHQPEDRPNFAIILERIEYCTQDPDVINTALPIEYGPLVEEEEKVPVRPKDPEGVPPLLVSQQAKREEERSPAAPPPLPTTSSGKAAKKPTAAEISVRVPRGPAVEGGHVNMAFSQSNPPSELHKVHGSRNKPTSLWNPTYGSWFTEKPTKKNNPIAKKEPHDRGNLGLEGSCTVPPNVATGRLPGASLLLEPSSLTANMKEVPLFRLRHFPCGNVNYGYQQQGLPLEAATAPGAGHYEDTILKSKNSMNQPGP
Assay: Inhibition of ALK
pIC50: −log10 of the molar value.
# pIC50 per record follows

smiles_representation	pIC50
CNC(=O)c1cccc(Nc2nc(Nc3ccc4c(c3)CCCC(=O)N4C)ncc2Cl)c1	6.25
CCN1C(=O)CCCc2c1ccc(Nc1ncc(Cl)c(N[C@H]3[C@@H](C(N)=O)[C@@H]4C=C[C@H]3C4)n1)c2OC	7.85

* * *

Assay: AUC in Sprague-Dawley rat at 1 mg/kg, iv
Format: ADME, organism-based
Design: dose 1 mg/kg, route intravenous
Settings: plasma

smiles_representation	AUC [ng·h/mL]
CCN1C(=O)CCCc2c1ccc(Nc1ncc(Cl)c(N[C@H]3[C@@H](C(N)=O)[C@@H]4C=C[C@H]3C4)n1)c2OC	1280

* * *

Assay: Drug uptake in tumor lysates in SCID mouse xenografted with ALK-positive human SUP-M2 cells at 55 mg/kg, po bid for 12 days
Type: ADME, organism-based, Neoplasm
Parameters: dose 55 mg/kg, route oral
Settings: read-out: Drug uptake

smiles_representation	concentration at 288 h [ng/g]
CCN1C(=O)CCCc2c1ccc(Nc1ncc(Cl)c(N[C@H]3[C@@H](C(N)=O)[C@@H]4C=C[C@H]3C4)n1)c2OC	1180

* * *

Assay: Drug uptake in tumor lysates in SCID mouse xenografted with ALK-positive human SUP-M2 cells at 30 mg/kg, po bid for 12 days
Assay type: ADME, organism-based, Neoplasm
Parameters: dose 30 mg/kg, route oral
Settings: read-out: Drug uptake
readout_type: concentration at 288 h (ng/g)

smiles_representation	readout_number
CCN1C(=O)CCCc2c1ccc(Nc1ncc(Cl)c(N[C@H]3[C@@H](C(N)=O)[C@@H]4C=C[C@H]3C4)n1)c2OC	405
